Attribution: PubChem BioAssay AID1159580

- Run description: chemical genetic growth profiling, strain panel (AID 1159580);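 further: tested at 20 µM; growth read once vehicle control cultures reached saturation at 30 °C; lower values mean less growth of the strain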
- Measurement conditions: S. cerevisiae deletion strains, growth OD, locus YDL101C, strain DUN1
Out of some 5,500 compounds screened, about 2,000 (36%) were called active. Inconclusive results (about 18%) are left out. No stated cut-off is given here; in the data, active means normalized growth mostly below about 0.91 (no sharp cut-off); inconclusive means no clear call, values can overlap the other calls; inactive means mostly above about 0.92. The list shows a part of the results.
Possible outcomes: active, inactive

Compound	Label
CCCCCn1c(Sc2ncc([N+](=O)[O-])s2)n[nH]c1=O	active
O=C(N/N=C\c1ccccc1Cl)N/N=C\c1ccccc1Cl	inactive
O=C1c2c(O)ccc(O)c2C(=O)c2c(NCCNCCO)ccc(NCCNCCO)c21	inactive
N#CCCCCOc1ccc2c(=O)cc(-c3ccccc3)oc2c1	inactive
Cc1ccc(C(=O)c2ccccc2[N+](=O)[O-])cc1	inactive
CC(C)(C)c1csc(NNC(=O)c2ccc(Cl)cc2)n1	inactive
NCC(=O)CCC(=O)O	inactive
CC(C)(C)c1csc(NC(=O)c2ccc(Cl)cc2Cl)n1	inactive
Cc1cc(C(F)(F)F)c(C#N)c(=O)[nH]1	inactive
O=c1c2ccccc2oc2ccc(O)cc12	active
O=C(O)/C=C(\CC(=O)O)C(=O)O	inactive
C=CCn1c(Sc2ncc([N+](=O)[O-])s2)n[nH]c1=O	inactive
C/C(=N/Nc1nc(C(C)(C)C)cs1)c1ccc(Cl)c(Cl)c1	inactive
COc1ccc(-c2cc(=O)c3cc(OC)ccc3o2)cc1	inactive
Cc1coc2ccccc2c1=O	inactive
Cc1csc2ncnc(N/N=C\c3ccccc3Cl)c12	inactive
CCn1nc(C)cc1-c1nnc(Sc2ncc([N+](=O)[O-])s2)n1C	inactive
C=C1C2CC[C@@]3(C)[C@H](c4ccoc4)OC(=O)C[C@]13O[C@H]1CC(=O)C(C)(C)[C@H](C(O)C(=O)OC)[C@@]21C (some centres not stated)	inactive
CC(C)=CCc1c2c(c(O)c3c(=O)c(O)c(-c4ccccc4)oc13)C=CC(C)(C)O2	active
O=C1CCc2cc(OCCCCc3nnnn3C3CCCCC3)ccc2N1	inactive
CC1(C)O[C@@H]2CC3C4C[C@H](F)C5=CC(=O)C=C[C@]5(C)[C@@]4(F)[C@@H](O)C[C@]3(C)[C@]2(C(=O)CO)O1 (some centres not stated)	inactive
O=C(O)c1coc2ccccc2c1=O	inactive
O=C(O)c1nc2cc(Cl)c(Cl)cc2[nH]c1=O	inactive
CC(C)(C)c1cc2nc(C(F)(F)F)cc(NNC(=O)c3ccc(Cl)cc3)n2n1	inactive
CC(C)(C)c1csc(NC(=O)Nc2ccc(Cl)cc2)n1	inactive
CC1(C)O[C@@H]2CC3C4C[C@H](F)C5=CC(=O)C=CC5(C)C4C(O)CC3(C)[C@]2(C(=O)CO)O1 (some centres not stated)	inactive
CCC(/C=C/[C@@H](C)[C@H]1CCC2C3CC=C4C[C@@H](O)CC[C@]4(C)C3CC[C@@]21C)C(C)C (some centres not stated)	inactive
NS(=O)(=O)c1cc2c(cc1C(F)(F)F)NCNS2(=O)=O	inactive
COc1cccc(-c2cc(=O)c3ccc(OC)cc3o2)c1	inactive
C=CCCCCCCCCCCCC(O)CC(O)CO (configuration not stated)	inactive
COc1cc([C@@H]2c3cc4c(cc3[C@H](O)[C@H]3COC(=O)[C@@H]23)OCO4)cc(OC)c1OC	inactive
COC(=O)c1ccc(Cl)cc1N(Cc1ccccc1)S(C)(=O)=O	inactive
CN(C(=O)N(C)c1ccc(Cl)cc1C(=O)c1ccccc1Cl)c1ccc(Cl)cc1C(=O)c1ccccc1Cl	active
C=CCc1ccccc1OCC(O)CNC(C)C (configuration not stated)	inactive
CC(C)CSc1nnc(CSCc2nc(-c3ccc(Cl)cc3)cs2)n1C	inactive
CCOC(=O)CSc1nnc(-c2cc(C(C)(C)C)nn2Cc2cccc(C)c2)n1C1CCCCC1	inactive
C=C1C(N)CC2CC1C2(C)C (configuration not stated)	inactive
CC1=NCCc2c1[nH]c1cc(O)ccc21	inactive
Cn1c(=O)c2[nH]c(C3CCCC3)nc2n(C)c1=O	inactive
C[C@@H]1CC[C@@]2(OC1)OC1C(O)C3C4CC[C@H]5C[C@H](O[C@@H]6O[C@H](CO)[C@H](O[C@@H]7O[C@H](CO)[C@@H](O)[C@H](O[C@@H]8OC[C@@H](O)[C@H](O)[C@H]8O)[C@H]7O[C@@H]7O[C@H](CO)[C@H](O)[C@H](O[C@@H]8O[C@H](CO)[C@@H](O)[C@H](O)[C@H]8O)[C@H]7O)[C@H](O)[C@H]6O)[C@H](O)C[C@]5(C)C4CC[C@]3(C)C1[C@@H]2C (some centres not stated)	active
O=c1[nH]c2cc(Cl)c(Cl)cc2[nH]c1=O	inactive
CCOC(=O)c1ccc2oc3ccc(O)cc3c(=O)c2c1	inactive
